biological target: pseudo-kinase domain (JH2) of human V617F mutant JAK2 (Homo sapiens (Human), UniProt O60674, F794H/V617F/W659A/W777A); test: JAK2 LanthaScreen JH2-V617F Binding Assay; conditions: JAK2 JH2-V617F 0.26 nM, 50 nM tracer, 1 hour at 25° C.; read-out: JH2BINDING_V617F IC50
Sequence (O60674 536-812 V617F/W659A/W777A/F794H): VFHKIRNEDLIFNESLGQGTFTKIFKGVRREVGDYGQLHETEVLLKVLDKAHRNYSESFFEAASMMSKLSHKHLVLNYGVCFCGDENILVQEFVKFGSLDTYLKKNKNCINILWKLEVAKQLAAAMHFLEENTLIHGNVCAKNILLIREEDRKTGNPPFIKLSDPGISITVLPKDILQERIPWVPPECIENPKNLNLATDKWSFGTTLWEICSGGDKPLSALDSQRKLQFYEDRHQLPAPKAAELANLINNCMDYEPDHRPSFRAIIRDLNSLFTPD
pIC50: −log10 of the molar value. Structures can show the parent of a compound that is named as a salt.

{"MOLECULE": "O=C(Nc1cc(Nc2ccccc2OC(F)F)c2c(=O)[nH]ccc2n1)C1CC1 [Example 20, Trifluoroacetic Acid Salt]", "pIC50": "5.00 to 6.00"}
{"MOLECULE": "CS(=O)(=O)c1c(Nc2cc(NC(=O)C3CC3)nc3cc[nH]c(=O)c23)cccc1-c1cnn(C2CCOCC2)c1 [Example 13, Trifluoroacetic Acid Salt]", "pIC50": "5.00 to 6.00"}
{"MOLECULE": "COc1c(Nc2cc(NC(=O)C3CC3)nc3cc[nH]c(=O)c23)cccc1-c1cnc(C2CCOCC2)s1 [Example 2, Trifluoroacetic Acid Salt]", "pIC50": "≥ 7.00"}
{"MOLECULE": "O=C(Nc1cc(Nc2ccccc2OC2CC2)c2c(=O)[nH]ccc2n1)C1CC1 [Example 24, Trifluoroacetic Acid Salt]", "pIC50": "5.00 to 6.00"}
{"MOLECULE": "CNc1ccccc1Nc1cc(NC(=O)C2CC2)nc2cc[nH]c(=O)c12 [Example 22, Trifluoroacetic Acid Salt]", "pIC50": "< 5.00"}
{"MOLECULE": "Cc1[nH]ncc1-c1c(Nc2cc(NC(=O)C3CC3)nc3cc[nH]c(=O)c23)cccc1C(F)(F)F [Example 19, Trifluoroacetic Acid Salt]", "pIC50": "5.00 to 6.00"}
